- Run Description: Stability in PBS
- Type: physicochemical
- Cond: 10 μM compound, ambient temperature
Measurement Label: half-life at 10 µM (h)

• O=C(ON1C(=O)C2CN(C(=O)N3CCOCC3)CCN2C1=O)N1CCC(CCc2ccc(Cl)cc2)CC1 (stereo not shown) [Compound 1] = 19

----------
inhibition at 100 µM values, listed per item
- Assayed System: LYPLA2 (Mus musculus)
- Construct: a complex proteome endogenously expressing LYPLA1/2 was incubated with test compound; from tissue; host or cells: mouse brain, membrane fraction
- Sequence (Q9WTL7 whole entry): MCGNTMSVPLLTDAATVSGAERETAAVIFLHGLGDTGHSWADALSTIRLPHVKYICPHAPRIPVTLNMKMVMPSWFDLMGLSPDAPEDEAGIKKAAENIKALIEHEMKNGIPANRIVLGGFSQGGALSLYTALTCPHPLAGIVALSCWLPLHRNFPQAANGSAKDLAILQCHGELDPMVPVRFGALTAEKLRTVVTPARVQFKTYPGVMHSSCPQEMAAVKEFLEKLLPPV
- Run Description: Gel-based competitive ABPP in vitro, mouse brain membrane proteome
- Assay type: biochemical
- Cond: 100 μM compound, 30 min, one replicate; read-out: LYPLA2 % INH 100 μM
- Protocol: Assay Overview: The purpose of this assay was to determine whether test compounds can inhibit LYPLA1 and LYPLA2 in a complex proteomic lysate and to assess anti-target inhibition using a competitive activity-based proteomic profiling (ABPP) assay. […] The reaction products were separated by SDS-PAGE and visualized in-gel using a flatbed fluorescence scanner. The percentage activity remaining was determined by measuring the integrated optical density of the bands. […]
Measurement Label: inhibition at 100 µM (%)

* O=C(ON1C(=O)C2CN(Cc3ccc(Br)cc3)CCN2C1=O)N1CCC(CCc2ccc(Cl)cc2)CC1 (centres unmarked) | 90
* COC(=O)C1CCN(C(=O)ON2C(=O)C3CN(C(=O)OC(C)(C)C)CCN3C2=O)CC1 (centres unmarked) | 25
* COc1ccc(C(=O)N2CCN3C(=O)N(OC(=O)N4CCC(CCc5ccc(Cl)cc5)CC4)C(=O)C3C2)cc1 (centres unmarked) | 100
* O=C(ON1C(=O)C2CN(C(=O)N3CCOCC3)CCN2C1=O)N1CCC(CCc2ccc(Cl)cc2)CC1 (centres unmarked) | 100
* O=C(Cc1ccccc1)N1CCN2C(=O)N(OC(=O)N3CCC(CCc4ccc(Cl)cc4)CC3)C(=O)C2C1 (centres unmarked) | 100
